molecular target: SSTR4 (Homo sapiens (Human)); assay: Inhibition of forskolin stimulated cAMP in CHO-K1 cells overexpressing SSTR4; format: cell-based
Sequence (P31391 whole entry): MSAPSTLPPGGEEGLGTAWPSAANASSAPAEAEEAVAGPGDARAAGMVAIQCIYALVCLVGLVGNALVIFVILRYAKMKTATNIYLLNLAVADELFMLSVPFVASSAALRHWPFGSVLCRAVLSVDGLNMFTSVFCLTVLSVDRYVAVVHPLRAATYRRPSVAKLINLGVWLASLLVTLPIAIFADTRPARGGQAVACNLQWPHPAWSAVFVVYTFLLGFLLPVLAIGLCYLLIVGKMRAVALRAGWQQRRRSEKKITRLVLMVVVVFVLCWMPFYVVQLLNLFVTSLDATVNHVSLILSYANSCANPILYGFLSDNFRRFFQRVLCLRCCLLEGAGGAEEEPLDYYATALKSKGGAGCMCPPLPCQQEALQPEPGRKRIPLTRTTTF
# key: entry, value: SSTR4 Activity pEC50
measuredEndpoint: SSTR4 Activity pEC50

>  <compound>
C[C@H]1CN(C)CC[C@@H]1NC(=O)C(C)(C)COc1ccccc1F

>  <reportedValue>
7.1

$$$$
>  <compound>
CCc1ccccc1OCC(C)(C)C(=O)NC1CN(C)CC1c1ccccc1 (centres unmarked)

>  <reportedValue>
7.9

$$$$
>  <compound>
CN1CCC(NC(=O)C(C)(C)COc2ncc(F)cc2F)CC1

>  <reportedValue>
6.1

$$$$
>  <compound>
Cc1cnc(OCC(C)(C)C(=O)NC2CCN(C)CC2)c(C)c1

>  <reportedValue>
7.4

$$$$
>  <compound>
Cc1cnc(OCC(C)(C)C(=O)N[C@@H]2CCN(C)C[C@H]2C)c(C)c1 (single isomer, unassigned)

>  <reportedValue>
6.2

$$$$
